tested on: MS2 coat protein; assay: apparent Kd, MS2 coat protein; higher = weaker binding; RNA-MaP array; FMN 200 µM where present; settings: ligand present: flavin mononucleotide; designed as: OFF switch for flavin mononucleotide
Please provide measured apparent Kd for the entries that follow.
Numbers only, in nM.

Sequence Record: GAAAACAUAGGAUAUACAUGAGGAUCACCCAUGUUAAAAUAAAGAAAGGGAGAAAUAAGUAGAAGGAUGAAAAA
apparent Kd (nM): 34.2

# map each sequence to its apparent Kd
1. UGGAGGUCAGGAUAUGCAUGGCGGGACUUGCGUCGUGGCGUGCAGAAGGGACAUGAGGAUCACCCAUGUGGAGA
2. AAACCUAUAGGAUAUACAUGAGGAUCACCCAUGUUGCGAUUUUUUAGGUAACAGAUCCGUAGAAGGGUAGGUUA
3. CGCUAAUAAAUAGUAAUAAUUGUACAGGAUAUGUUACAUGAGGAUCACCCAUGUAUUGGGUUUAAACAGAAGGGUAUAUUAGCG
4. GGAGAGGACAGAGGAUAUACGUGCUAGAGAUACUAGCAAAAUUUCCUCACAUGAGGAUCACCCAUGUAGAAGGCUGUCCUAUCG
5. UUGUUCUGAGGAUAUACAUGAGGAUCACCCAUGUGUUUCUGCUUGGUGACUAGCGAAUGUAGAAGGCUGUUCUC
6. UGAUAGCACAGAGGAUAUGCGUAGUGUUAUCACUACAUGAGGAUCACCCAUGUAGAAGGCUGUGCUAUCUAAGUCGGAAACGAC

Outgoing:
1: 112; 2: 57.6; 3: 126; 4: 309; 5: 35.6; 6: 7.44
